Assignment: determine reported pIC50 for the given compounds.
Tested on: HCV replicon cells Huh 9B
Assay method text: HCV replicon assay (luciferase readout)
Type: cell-based
pIC50: −log10 of the molar value.

Cc1ccc(C(=O)NCc2cccc(F)c2)cc1-c1ccc(C(=O)Nc2ccc(CN3CCS(=O)(=O)CC3)cc2)cc1 : > 6.00

Give pIC50 for all compounds that follow.
1. CCC1(c2ccc(NC(=O)c3ccc(C)c(-c4ccc(C(=O)Nc5ccc(CN6CCS(=O)(=O)CC6)cc5)cc4)c3)cc2)CCC(=O)NC1=O (stereo not shown)
2. Cc1ccc(C(=O)Nc2ccc(N3CCOCC3)cc2)cc1-c1ccc(C(=O)N[C@H](CO)Cc2c[nH]c3ccccc23)cc1
3. Cc1ccc(C(=O)NCCC(C)C)cc1-c1ccc(C(=O)Nc2ccc(CN3CCS(=O)(=O)CC3)cc2)cc1

1: > 6.00; 2: 5.30 to 6.00; 3: > 6.00

The values you see were collected from patent US8008303B2.
